# Measured On: T1, human MSLN-R3-his protein (human, UniProt Q13421 487-598)
# T1 construct: it is put last here; also called human MSLN-R3 protein; hMSLN-R3-his; not shown: His tag
# Experimental Details: ELISA on coated antigen, antibody 200 nM
Endpoint Name: OD450 (OD)
Form entry: value (OD) — number only.

Reference set, count: 2
S009-F7.65.13 (antibody, human IgG1, kappa, V domains shown, Human-murine chimeric antibody, human IgG1 heavy and kappa light constant regions) VH: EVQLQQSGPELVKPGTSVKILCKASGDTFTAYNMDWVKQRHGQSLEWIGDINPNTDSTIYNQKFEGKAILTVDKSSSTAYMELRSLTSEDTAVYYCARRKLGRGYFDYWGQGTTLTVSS VL: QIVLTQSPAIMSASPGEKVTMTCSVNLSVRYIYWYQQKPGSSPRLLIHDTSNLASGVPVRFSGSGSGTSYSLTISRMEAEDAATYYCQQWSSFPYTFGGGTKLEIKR	2.63
S009-F7.53.2 (antibody, human IgG1, kappa, V domains shown, Human-murine chimeric antibody, human IgG1 heavy and kappa light constant regions) VH: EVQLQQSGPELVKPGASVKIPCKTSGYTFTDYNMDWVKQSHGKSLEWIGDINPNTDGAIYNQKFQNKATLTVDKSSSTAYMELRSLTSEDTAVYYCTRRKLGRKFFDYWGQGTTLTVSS VL: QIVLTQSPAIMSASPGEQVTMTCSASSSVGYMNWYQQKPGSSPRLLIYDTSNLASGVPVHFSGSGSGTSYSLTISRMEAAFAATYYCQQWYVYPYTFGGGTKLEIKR	2.69

Qu. Look up OD450: S009-F7.25.19 (antibody, human IgG1, kappa, V domains shown, Human-murine chimeric antibody, human IgG1 heavy and kappa light constant regions) VH: QVQLQQPGTELVKPGASVKLSCKASGYTFTSYWMHWVKQRPGQGLEWIGNIIPSNGGTKYNEKFKSKATLTVDKSSSTAYMQLSSLTSEDSAVYYCSPHYYGGSPGFAYWGQGTLITVSA VL: DIVMTQSQKFMSTSVGDRVSVICKASQNVGTNVAWYQQKPGQSPKALIYSASYRYSGVPDRFTGSGSGTDFTLTISNVQSEDLAEYFCQQYNSYPLTFGGGTKLEIKR
Ans. 2.83

Data provenance is patent US20250250357A1.
